The entries below are paired with their reported pIC50.
# Target entity: SARS-CoV-2 3CLpro (Severe acute respiratory syndrome coronavirus 2 (2019-nCoV) (SARS-CoV-2), UniProt P0DTD1)
Please treat pIC50 as minus the base-10 logarithm of the molar concentration.

Illustrative cases are given below, each with its answer.
1) O=C(Cc1cnc2ccccn12)N(Cc1cccc(Cl)c1)c1ccc(-c2cn[nH]c2)cc1 [Compound 4] ... 5.94
2) COc1cc(Cl)cc(CN(C(=O)Cc2cncc3ccccc23)c2ccc(-c3c[nH]cn3)cc2)c1 [Compound 19] ... 7.00
3) Cc1ccncc1CC(=O)N(Cc1cc(F)cc(Cl)c1)c1ccc(-c2c[nH]cn2)cc1 [Compound 77] ... 6.87
4) O=C(Cc1cncc2ccccc12)N(Cc1cccc(F)c1F)c1ccc(-c2c[nH]cn2)cc1 [Compound 25] ... 6.74
5) O=C(Cc1cccnn1)N(Cc1cccc(Cl)c1)c1ccc(-c2cn[nH]c2)cc1 [Compound 6] ... 5.30

// query pIC50 value for entry Cc1ccc2nnc(CC(=O)N(Cc3cc(F)cc(Cl)c3)c3ccc(-c4c[nH]cn4)cc3)n2n1 [Compound 42]
6.60

Would you mind doing Cc1cncc(CC(=O)N(Cc2cc(F)cc(F)c2)c2ccc(-c3c[nH]cn3)cc2)c1 [Compound 66] as well?
6.99

Would you mind doing O=C(Cc1cncc(C2CC2)c1)N(Cc1cc(F)cc(F)c1)c1ccc(-c2c[nH]cn2)cc1 [Compound 67] as well?
6.79
